molecular target: Neu5Ac(a2-3)Gal(b1-4)Glc; assay: glycan array binding signal (z-score within array); higher = stronger binding; conditions: glycan notation: IUPAC condensed, linker removed
Only a selection was taken, and the strongest signals are over-represented in it overall.
So basically: glycan array binding signal (z-score) at 0.5 or higher? That is rule met. Lower than 0.5? That is rule not met.

Known results for binders:
Spy 2007 (Streptococcus pyogenes), Q99XV3 (protein) MKKGFFLMAMVVSLVMIAGCDKSANPKQPTQGMSVVTSFYPMYAMTKEVSGDLNDVRMIQSGAGIHSFEPSVNDVAAIYDADLFVYHSHTLEAWARDLDPNLKKSKVDVFEASKPLTLDRVKGLEDMEVTQGIDPATLYDPHTWTDPVLAGEEAVNIAKELGRLDPKHKDSYTKNAKAFKKEAEQLTEEYTQKFKKVRSKTFVTQHTAFSYLAKRFGLKQLGISGISPEQEPSPRQLKEIQDFVKEYNVKTIFAEDNVNPKIAHAIAKSTGAKVKTLSPLEAAPSGNKTYLENLRANLEVLYQQLK	rule not met
BC2LB (Burholderia cenocepacia), B4EH85_BURCJ (protein) MGSSHHHHHHSSGENLYFQGHMSQPFTHDDLYALLQLAGNDATAVQANGDQAVLDRMRQFMTAQLVEKLPQYDVFVDIATIPYSFDVGSWQNKVKTDAAGEVVACTVTWAGAPGVLPGAAAKFGVGAVVNYFSKATPH	rule met
EcCDA (Encephalitazoon cuniculi), Q8SU65 (protein) MLLCLLYFTSSWCSGSDVPDVCTNSGMIAINFVDGPVRGVTDRILNTLDELGVKATFSFTVNQKAVGNVGQLYRRAVEEGHNVALRVDPSMDEGYQCLSQDALENNVDREIDTIDGLSGTEIRYAAVPICNGQVNSEMYNILTERGVLPVGYTFCPYDYDDPVGEFESMIEGSDPKHHSFIILMHDGQEADTSRLENMVKIGKDKGYRFVNMDECLQGYKGAPGDPELSLRGKGVESIGKGFLPFFLMMLVRLL	rule not met
Na-CTL-1 (Necator americanus) (protein) MQRSFLLLLVVLAGAWAVNTTIPLKLMGGFTPMKYQCVGRVSDIWADVLFLIESSDMITKSGFRQVIAFITATTKKMTIGQDEKQTRVGFITYGEEAKLIYDLDHWRSTEKLSDLVQKIPYVKSSGTNIAAAIALANKVFNSPTHRPNVPKVMVIVANGLKKGSQNPIPVATAFKDFGGIIITIEYTQYDNIQVPILKKIASEGYNIRSNDEDFSVRTLTNMLLQANCFCPDHYVPFRVNNPEFGCFVTAKIPSMWRDAAEMCRAVEEGKLVKVENEEKAAFIMKLVGPKKEAWIGLRYYGNKFQWTDGTKLNADDFNLWPEDIKELNGPHCVSMYQDQKDKKYYWRAGKCLEDMRYVCEVQPCSASNYCSEPVFMYRQKHRALLPAPPPPPN	rule met
StdA (Salmonella typhimurium), Q8Z3Z0 (protein) MAAAGMMYGASVFAADTTPTAGPFGSGKILFTGTITNSPCDIAPGDDAITVPFGQISYRKLNTANATTDSKPFTIHLQNCAFDPNETTIAGSAGKMSKVTVSFSGTADTSGKAYVSTGSAQHVGVQLLKGDNTSLITPNTPMPDGDAQQLQAGNNELNFFARLIALTDAATPGDVNASVTYTLKYL	rule not met
FaeGac (Escherichia coli) (protein) WMTGDFNGSVDIGGSITADDYRQKWEWKVGTGLNGFGNVLNDLTNGGTKLTITVTGNKPILLGRTKEAFATPVTGGVDGIPHIAFTDYEGASVVLRKPDGETNKNGLAYFVLPMKNAGGTKVGSVKVNASYAGVLGRGGVTSADGELLSLFADGLSSIFYGGLPRGSELSAGSAAAARTKLFGSLSRDDILGQIQRVNANVTSLVDVAGSYRENMEYTDGNVVSAAYALGIANGQTIEATFNQAVTTSTQWSAPLNVAITYY	rule not met

Query: Hi, just wondering whether SSA (Sclerotinia sclerotiorum), A7XUK7 (protein) MGFKGVGTYEIVPYQAPSLNLNAWEGKLEPGAVVRTYTRGDKPSDNAKWQVALVAGSGDSAEYLIINVHSGYFLTATKENHIVSTPQISPTDPSARWTIKPATTHQYEVFTINNKVSELGQLTVKDYSTHSGADVLSASAKTADNQKWYFDAK shows glycan array binding signal (z-score) of 0.5 or higher.
Reply: rule not met

Query: Consider next the binder Epa3to2 (Candida glabrata) (protein) MGSSHHHHHHSSGLVPRGSHMKRELSSQNPFGYPIGCSPQDVAIIPGLTMELYSYPIVSGTPPNCYDASYVDPEYPRTGYLKRKMVGKSTGVTGNLNYKYSVEKACMVKYGNLPAGYNYNEPLTVSNFTMILYGYFKAQTTGLHTFFVNADDLLYINFGAGNAFDCCKREDSKTKLGEYVAYDIWHVDSSKNKVSLFLEKDLYYPIRMFFNNRDNNSSLDLSFSVNGATDQISDFSGYLYSVPDQPDTCPAHIGYDTTCR in the same way.
Reply: rule met
